protocol notes: Efflux ratio of apparent permeability in human Caco-2 cells
Format: ADME, cell-based
measured metric: efflux ratio

[[record]]
compound = "CC(C)NC(=O)N(C)c1cnc2ccc(-c3ccc(OCCCN4CCCCC4)nc3)cc2n1"
meas_value = 2.37


###

test target: DNA-dependent protein kinase catalytic subunit (Homo sapiens, UniProt P78527)
protocol notes: Inhibition of DNA-PK (unknown origin) in presence of [gamma33P-ATP] by scintillation counting method
pIC50: −log10 of the molar value.
measured metric: pIC50

[[record]]
compound = "CC(C)NC(=O)N(C)c1cnc2ccc(-c3ccc(OCCCN4CCCCC4)nc3)cc2n1"
test_target = "DNA-dependent protein kinase catalytic subunit (Homo sapiens, UniProt P78527)"
meas_value = 6.38


###

test target: Serine-protein kinase ATM (Homo sapiens, UniProt Q13315)
Sequence (Q13315 whole entry): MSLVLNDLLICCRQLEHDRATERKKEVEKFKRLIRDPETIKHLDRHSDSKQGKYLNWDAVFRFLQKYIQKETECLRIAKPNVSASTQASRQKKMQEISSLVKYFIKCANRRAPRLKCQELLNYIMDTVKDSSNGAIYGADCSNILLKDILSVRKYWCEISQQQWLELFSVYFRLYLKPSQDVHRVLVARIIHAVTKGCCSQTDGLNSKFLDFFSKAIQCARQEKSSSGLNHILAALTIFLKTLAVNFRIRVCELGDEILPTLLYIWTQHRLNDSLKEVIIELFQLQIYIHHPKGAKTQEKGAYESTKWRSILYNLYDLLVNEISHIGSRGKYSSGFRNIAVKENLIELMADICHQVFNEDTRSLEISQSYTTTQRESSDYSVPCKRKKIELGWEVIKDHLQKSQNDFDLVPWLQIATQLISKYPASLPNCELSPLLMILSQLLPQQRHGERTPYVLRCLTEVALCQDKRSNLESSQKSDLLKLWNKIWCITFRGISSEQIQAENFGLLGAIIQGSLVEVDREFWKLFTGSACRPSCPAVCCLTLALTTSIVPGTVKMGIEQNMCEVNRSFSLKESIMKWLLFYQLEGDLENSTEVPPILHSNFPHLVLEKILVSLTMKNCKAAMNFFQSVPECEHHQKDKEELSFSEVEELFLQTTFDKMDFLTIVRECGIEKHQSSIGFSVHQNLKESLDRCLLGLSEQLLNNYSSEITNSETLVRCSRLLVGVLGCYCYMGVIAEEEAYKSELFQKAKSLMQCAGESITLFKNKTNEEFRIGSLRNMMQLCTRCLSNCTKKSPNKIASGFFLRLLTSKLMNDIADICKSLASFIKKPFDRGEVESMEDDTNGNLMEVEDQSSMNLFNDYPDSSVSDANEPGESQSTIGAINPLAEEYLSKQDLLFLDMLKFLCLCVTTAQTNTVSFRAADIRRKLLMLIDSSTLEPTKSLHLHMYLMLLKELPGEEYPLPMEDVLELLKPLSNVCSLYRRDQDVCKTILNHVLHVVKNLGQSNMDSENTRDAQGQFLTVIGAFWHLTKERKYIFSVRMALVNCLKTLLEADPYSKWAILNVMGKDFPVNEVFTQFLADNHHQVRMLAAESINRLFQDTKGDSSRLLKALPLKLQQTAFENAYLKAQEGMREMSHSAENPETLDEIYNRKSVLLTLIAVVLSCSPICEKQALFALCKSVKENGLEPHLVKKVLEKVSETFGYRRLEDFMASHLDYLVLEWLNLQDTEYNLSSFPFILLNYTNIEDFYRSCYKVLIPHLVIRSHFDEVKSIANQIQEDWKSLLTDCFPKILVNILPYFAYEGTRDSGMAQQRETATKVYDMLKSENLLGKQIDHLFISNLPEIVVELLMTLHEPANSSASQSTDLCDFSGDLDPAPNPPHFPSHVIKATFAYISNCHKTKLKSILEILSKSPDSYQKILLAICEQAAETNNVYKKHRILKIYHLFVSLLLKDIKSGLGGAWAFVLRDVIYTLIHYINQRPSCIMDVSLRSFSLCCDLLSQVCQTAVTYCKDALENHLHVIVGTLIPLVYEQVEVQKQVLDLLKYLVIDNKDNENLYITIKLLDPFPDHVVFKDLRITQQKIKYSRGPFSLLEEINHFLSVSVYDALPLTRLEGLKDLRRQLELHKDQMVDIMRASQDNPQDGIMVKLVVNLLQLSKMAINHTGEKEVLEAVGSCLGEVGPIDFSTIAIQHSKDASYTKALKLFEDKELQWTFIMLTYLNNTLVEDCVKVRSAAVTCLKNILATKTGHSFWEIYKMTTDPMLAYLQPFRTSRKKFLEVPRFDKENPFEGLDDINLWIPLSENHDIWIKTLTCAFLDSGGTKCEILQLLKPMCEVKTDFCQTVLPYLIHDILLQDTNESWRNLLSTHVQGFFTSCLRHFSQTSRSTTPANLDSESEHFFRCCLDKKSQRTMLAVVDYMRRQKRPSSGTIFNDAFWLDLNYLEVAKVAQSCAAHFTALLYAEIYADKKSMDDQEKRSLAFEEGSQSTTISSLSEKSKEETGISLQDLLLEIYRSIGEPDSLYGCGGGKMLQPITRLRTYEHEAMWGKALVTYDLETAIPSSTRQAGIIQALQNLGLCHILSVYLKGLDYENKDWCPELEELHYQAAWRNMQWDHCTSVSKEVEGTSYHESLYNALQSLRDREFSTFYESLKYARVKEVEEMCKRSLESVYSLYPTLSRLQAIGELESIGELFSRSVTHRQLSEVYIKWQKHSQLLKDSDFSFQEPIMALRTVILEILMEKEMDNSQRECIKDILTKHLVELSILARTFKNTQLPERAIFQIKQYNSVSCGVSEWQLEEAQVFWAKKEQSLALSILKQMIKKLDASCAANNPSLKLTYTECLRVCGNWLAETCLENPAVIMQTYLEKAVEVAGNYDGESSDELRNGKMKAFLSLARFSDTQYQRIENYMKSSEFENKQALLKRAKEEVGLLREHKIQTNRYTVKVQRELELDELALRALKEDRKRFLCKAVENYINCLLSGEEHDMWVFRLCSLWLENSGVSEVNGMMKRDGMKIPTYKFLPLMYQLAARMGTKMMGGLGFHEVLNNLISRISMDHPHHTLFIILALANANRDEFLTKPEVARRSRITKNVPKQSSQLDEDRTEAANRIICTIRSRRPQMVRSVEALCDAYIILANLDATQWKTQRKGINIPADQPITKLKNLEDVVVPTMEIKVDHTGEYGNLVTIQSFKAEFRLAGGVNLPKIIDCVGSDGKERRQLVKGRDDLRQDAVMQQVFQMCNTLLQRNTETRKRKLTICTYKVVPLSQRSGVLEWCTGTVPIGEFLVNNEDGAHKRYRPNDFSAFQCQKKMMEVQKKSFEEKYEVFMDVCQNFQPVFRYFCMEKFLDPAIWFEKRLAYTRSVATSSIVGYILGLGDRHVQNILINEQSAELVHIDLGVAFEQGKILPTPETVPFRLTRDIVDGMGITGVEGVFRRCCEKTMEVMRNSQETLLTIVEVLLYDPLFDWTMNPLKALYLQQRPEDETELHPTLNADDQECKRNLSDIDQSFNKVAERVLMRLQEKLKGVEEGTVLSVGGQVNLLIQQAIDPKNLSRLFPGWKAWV
protocol notes: Inhibition of ATM (unknown origin) assessed as remaining activity at 0.01 uM preincubated with compound for 30 mins followed by substrate addition and measured after 2 hrs by HTRF method relative to control
applied conditions: time 2.5 hrs
measured metric: Activity (%)

[[record]]
compound = "Cc1cc(-c2ccc3ncc(N(C)C(=O)NC(C)C)nc3c2)cnc1OCCCN1CCCCC1"
measured_metric = "Activity"
meas_value = 107

[[record]]
compound = "CC1CCC(NC(=O)N(C)c2cnc3ccc(-c4ccc(OCCCN(C)C)nc4)cc3n2)CC1 (centres undefined)"
measured_metric = "Activity"
meas_value = 8

[[record]]
compound = "CC(C)NC(=O)N(C)c1cnc2ccc(-c3ccc(OCCCN4CCN(C)CC4)nc3)cc2n1"
measured_metric = "Activity"
meas_value = 5

[[record]]
compound = "CCN(CC)CCCOc1ccc(-c2ccc3ncc(N(C)C(=O)NC(C)C)nc3c2)cn1"
measured_metric = "Activity"
meas_value = 19

[[record]]
compound = "CC(C)NC(=O)N(C)c1cnc2ccc(-c3ccc(OC4CCN(C)CC4)nc3)cc2n1"
measured_metric = "Activity"
meas_value = 100

[[record]]
compound = "CC(C)NC(=O)N(C)c1cnc2ccc(-c3ccc(OC(C)CN(C)C)nc3)cc2n1 (centres undefined)"
measured_metric = "Activity"
meas_value = 94

[[record]]
compound = "CCNC(=O)N(C)c1cnc2ccc(-c3ccc(OCCCN(C)C)nc3)cc2n1"
measured_metric = "Activity"
meas_value = 33

[[record]]
compound = "Cc1nc(OCCCN2CCCCC2)ccc1-c1ccc2ncc(N(C)C(=O)NC(C)C)nc2c1"
measured_metric = "Activity"
meas_value = 16

[[record]]
compound = "CC(C)NC(=O)N(C)c1cnc2ccc(-c3cnc(OCCCN4CCCCC4)c(F)c3)cc2n1"
measured_metric = "Activity"
meas_value = 94

[[record]]
compound = "CC(C)NC(=O)N(C)c1cnc2ccc(-c3ccc(OCCN4CCCC4)nc3)cc2n1"
measured_metric = "Activity"
meas_value = 76

[[record]]
compound = "CC(C)NC(=O)N(C)c1cnc2ccc(-c3ccc(OCCCN4CCOCC4)nc3)cc2n1"
measured_metric = "Activity"
meas_value = 4

[[record]]
compound = "CCCNC(=O)N(C)c1cnc2ccc(-c3ccc(OCCCN(C)C)nc3)cc2n1"
measured_metric = "Activity"
meas_value = 12

[[record]]
compound = "COc1ccc(NC(=O)N(C)c2cnc3ccc(-c4ccc(OCCCN(C)C)nc4)cc3n2)cc1"
measured_metric = "Activity"
meas_value = 22

[[record]]
compound = "CC(C)NC(=O)N(C)c1cnc2ccc(-c3cnc(OCCCN4CCCCC4)c(C(F)(F)F)c3)cc2n1"
measured_metric = "Activity"
meas_value = 90

[[record]]
compound = "CC(C)NC(=O)N(C)c1cnc2ccc(-c3ccc(OCCCCN(C)C)nc3)cc2n1"
measured_metric = "Activity"
meas_value = 66

[[record]]
compound = "C=CCNC(=O)N(C)c1cnc2ccc(-c3ccc(OCCCN(C)C)nc3)cc2n1"
measured_metric = "Activity"
meas_value = 11

[[record]]
compound = "CC(C)NC(=O)N(C)c1cnc2ccc(-c3ccnc(OCCCN4CCCCC4)c3)cc2n1"
measured_metric = "Activity"
meas_value = 97

[[record]]
compound = "CC(C)NC(=O)N(C)c1cnc2ccc(-c3ccc(OCCN4CCN(C)CC4)nc3)cc2n1"
measured_metric = "Activity"
meas_value = 97

[[record]]
compound = "CC(C)NC(=O)N(C)c1cnc2ccc(-c3ccc(OCCC4CCCN4C)nc3)cc2n1 (centres undefined)"
measured_metric = "Activity"
meas_value = 43

